// provenance: the supplement of paper PMC10567573

Assignment: determine reported protein stability index for the given sequences.
protocol: protein stability index of a GFP-peptide fusion (GPS, HEK-293T) (PSI 1-6); higher = more stable;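 note: 24-mer peptide tiles fused after GFP, lentivirally expressed, FACS-sorted into six equal bins by GFP/DsRed ratio, decoded by Illumina sequencing, PSI is the read-weighted mean bin number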
assayContext: treatment: DMSO; c terminus: a fixed tail appended

Record summary for TFWASWRAFAQIGPARSGFRLETL [MIR22HG] : reported protein stability index = 2.73

Record summary for QASAAPAAPLPERNSLSAIFNNVM [SLC29A1] : reported protein stability index = 3.55

Record summary for KIQASGETPNSLNTTVIPNGSMAM [LYSMD4] : reported protein stability index = 4.22

Record summary for PRESTDFSSSSQEAFAASAVGSGE [ZBTB22] : reported protein stability index = 5.22

Record summary for TDSKELSMAKEVIAKELSKTYQET [ZBED1] : reported protein stability index = 4.91

Record summary for ITDLPRIDVSKREPPPVKQELPPY [EFHC1] : reported protein stability index = 4.37

Record summary for IELAPLSMPRINHGVLSAEGFLFV [GAN] : reported protein stability index = 3.34

Record summary for SVSLDRCIKIWDVTSQATLLTITK [WDR88] : reported protein stability index = 2.43

Record summary for YKRQEESGAAASLNVDAAVQQWLQ [CHIT1] : reported protein stability index = 4.22

Record summary for MNEVKESLRSIEQKYKLFQQQQLT [SPACA9] : reported protein stability index = 3.33

Record summary for FSQSAGLIQHQRIHKGEKPYQCSQ [ZSCAN9] : reported protein stability index = 3.55

Record summary for ETVLALVNCISPLKYFSDFRPYFT [DENND6A] : reported protein stability index = 2.54

Record summary for CLRCWDQRTIMKPLEYQFKSQIMS [TLE6] : reported protein stability index = 2.14

Record summary for GGGPEATLSISDVRTLSEPPDKGE [ZBTB22] : reported protein stability index = 5.33

Record summary for QSCARAVVPSYIPLVKKHCDDSFT [CPOX] : reported protein stability index = 2.73

Record summary for ESIQQTARSIAEQAHELAYDPNYM [PPTC7] : reported protein stability index = 4.52

Record summary for GFLLRYAVIKSNHSYCRMFLQRGA [ASB7] : reported protein stability index = 2.6

Record summary for LELLVNNGADVNIQSKDGKSPLHM [ANKRD44] : reported protein stability index = 4.06

Record summary for SRTSCRLSGGLGAGSCRLGSAGGL [KRT17] : reported protein stability index = 2.33

Record summary for MSGSCAVCVDRVLYLFGGHHSRGN [KLHDC2] : reported protein stability index = 2.35

Record summary for HLGCMHYTVRAPVGVAGLISPWNL [ALDH8A1] : reported protein stability index = 2.48

Record summary for RQPPPPAPQHPQPGSQALPAPALA [FBXO28] : reported protein stability index = 4.45

Record summary for ELQRTKQEVLSLRRENSTLDVECH [SASS6] : reported protein stability index = 4.02

Record summary for IEVKTKGGSKYLIYRRYRQFHALQ [NCF4] : reported protein stability index = 2.22

Record summary for LEEFQLALKHYVESASSQSGCLRI [NECAB1] : reported protein stability index = 2.21

Record summary for LDDEDDTSIGMPSLMYRSPPGAEE [RETREG3] : reported protein stability index = 5.44

Record summary for RCKEENTIILQQLLPLRTKVAKLL [NLN] : reported protein stability index = 2.47
